# credit: PubChem BioAssay (NCI)

Reported TGI by item:
Tested on: RXF 393 renal
assay overview: NCI tumour cell line growth inhibition, 48 h
measurement name: TGI

>  <compound>
CCOC(=O)[C@H]1Nc2ccc(Cl)cc2[C@H]2OCC[C@@H]12

>  <reported value>
> 100 µM

$$$$
>  <compound>
COc1ccc(C2CC(=O)CC(c3ccc(OC)cc3)C23C(=O)NC(=S)NC3=O)cc1 (centres undefined)

>  <reported value>
> 100 µM

$$$$
>  <compound>
CC(=O)c1nc2ccccc2n1CC(=O)c1ccc(Cl)cc1

>  <reported value>
98.5 µM

$$$$
>  <compound>
NC(=S)NNC(=O)CCC(=O)Nc1ccc(Cl)cc1Cl

>  <reported value>
> 100 µM

$$$$
>  <compound>
CCCc1c(C(=O)OCC)[nH]c(-c2ccc(-c3[nH]c(C(=O)OCC)c(CCC)c3C(=O)OCC)o2)c1C(=O)OCC

>  <reported value>
> 100 µM

$$$$
>  <compound>
CN(C)/C=C(\C(=O)c1ccccc1)n1nc(-c2ccccc2)cc1-c1ccccc1

>  <reported value>
> 10 µM

$$$$
>  <compound>
CSCCCNC(=O)c1csc(-c2csc(CCN)n2)n1

>  <reported value>
> 100 µM

$$$$
>  <compound>
O=C1[C@@H]2C3SC(c4ccccc43)[C@@H]2C(=O)N1c1ccccc1

>  <reported value>
> 100 µM

$$$$
>  <compound>
C[C@H]1[C@H](C)CC[C@]2(C(=O)O)CC[C@]3(C)C(=CC[C@@H]4[C@@]5(C)CC[C@H](OC(=O)/C=C/c6ccc(O)cc6)C(C)(C)[C@@H]5CC[C@]43C)[C@H]12

>  <reported value>
5.42 µM

$$$$

---

Reported TGI by item:
Test system: HT29 colon
assay overview: NCI tumour cell line growth inhibition, 48 h
measurement name: TGI

>  <compound>
COc1cc2c(cc1Oc1ccc(OC)c3c1CC1c4c(cc(OC)c(OC)c4-3)CCN1C)CC1c3c(cc(OC)c(OC)c3-2)CCN1C (centres undefined)

>  <measurement name>
TGI

>  <reported value>
2.94 µM

$$$$
>  <compound>
Cc1nc(-c2nc(C)c(C(=O)NN(C)C)s2)sc1C(=O)NN(C)C

>  <measurement name>
TGI

>  <reported value>
> 100 µM

$$$$
>  <compound>
CC1OC(OC2CCCc3c(O)c4c(c(O)c32)C(=O)c2ccccc2C4=O)CC(N)C1O (centres undefined)

>  <measurement name>
TGI

>  <reported value>
2.87 µM

$$$$
>  <compound>
CCCc1c(C(=O)OCC)[nH]c(-c2ccc(-c3[nH]c(C(=O)OCC)c(CCC)c3C(=O)OCC)o2)c1C(=O)OCC

>  <measurement name>
TGI

>  <reported value>
> 100 µM

$$$$

---

Reported log10(TGI) by item:
System: CAKI-1 renal
assay overview: NCI tumour cell line growth inhibition, 48 h
measurement name: log10(TGI) (log10 of the value in µM)

>  <molecule>
O=C1c2cscc2C(=O)C1(O)O

>  <reported value>
1.92

$$$$
>  <molecule>
Cc1ncc(C(=O)Nc2ccc(CN3CCN(C)CC3)c(C(F)(F)F)c2)cc1C#Cc1cnc(N)c2ncccc12

>  <reported value>
0.16

$$$$
>  <molecule>
COC(=O)[C@]12CCC(C)(C)C[C@H]1C1=CC[C@@H]3[C@@]4(C)CC[C@H](OC5OC(CO)C(O)C(O)C5OC5OC(CO)C(O)C(O)C5O)C(C)(C)[C@@H]4CC[C@@]3(C)[C@]1(C)CC2 (stereo not given in full)

>  <reported value>
1.32

$$$$
>  <molecule>
CN(C)CCCNc1ccnc2cc([N+](=O)[O-])ccc12

>  <reported value>
1.83

$$$$
>  <molecule>
Cc1c2cccc-2ccc2c1[nH]c1ccc(Br)cc12

>  <reported value>
1.40

$$$$
